Data provenance: paper PMC11480844

B1: H2-Kb / Ed33 (parent complex)
chain 1: SQLAEENSWALSVHEGESVTVNCSYKTSITALQWYRQKSGKGPAQLILIRSNEREKRNGRLRATLDTSSQSSSLSITATRCEDTAVYFCATDHNNAGAKLTFGGGTRLTVRP
chain 2: DAGVTQTPRHEVAEKGQTIILKCEPVSGHNDLFWYRQTKIQGLELLSYFRSKSLMEDGGAFKDRFKAEMLNSSFSTLKIQPTEPKDSAVYLCASSLYTNQAPLFGEGTRLSVL
chain 3: not shown
chain 4: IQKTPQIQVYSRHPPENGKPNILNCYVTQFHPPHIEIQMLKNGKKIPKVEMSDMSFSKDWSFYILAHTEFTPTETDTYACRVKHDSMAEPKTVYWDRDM
chain 5: SIINFEKL

- Variants of: B1
- experiment: % of reporter cells activated (NFAT-GFP), raw; also: test concentration or dose not given here
Reported ratio to parent values follow for various variants
measuredEndpoint: ratio to parent

[[record]]
variantdescriptor = "chain 5 L8N"
numericvalue = 0.905

[[record]]
variantdescriptor = "chain 5 N4S"
numericvalue = 0.00273

[[record]]
variantdescriptor = "chain 5 I2T"
numericvalue = 0.981

[[record]]
variantdescriptor = "chain 5 K7M"
numericvalue = 0.0938

[[record]]
variantdescriptor = "chain 5 N4C"
numericvalue = 0.0904

[[record]]
variantdescriptor = "chain 5 I2R"
numericvalue = 0.807

[[record]]
variantdescriptor = "chain 5 N4W"
numericvalue = 0.0116

[[record]]
variantdescriptor = "chain 5 I2D"
numericvalue = 0.897

[[record]]
variantdescriptor = "chain 5 N4A"
numericvalue = 0.00624

[[record]]
variantdescriptor = "chain 5 F5E"
numericvalue = 0.625

[[record]]
variantdescriptor = "chain 5 N4K"
numericvalue = 0.41

[[record]]
variantdescriptor = "chain 5 F5H"
numericvalue = 0.911

[[record]]
variantdescriptor = "chain 5 I2V"
numericvalue = 1.04

[[record]]
variantdescriptor = "chain 5 E6A"
numericvalue = 0.055

[[record]]
variantdescriptor = "chain 5 L8G"
numericvalue = 0.87

[[record]]
variantdescriptor = "chain 5 K7V"
numericvalue = 0.427

[[record]]
variantdescriptor = "chain 5 S1M"
numericvalue = 0.675

[[record]]
variantdescriptor = "chain 5 N4M"
numericvalue = 0.00151

[[record]]
variantdescriptor = "chain 5 L8I"
numericvalue = 0.988

[[record]]
variantdescriptor = "chain 5 K7R"
numericvalue = 0.318

[[record]]
variantdescriptor = "chain 5 N4G"
numericvalue = 0.294

[[record]]
variantdescriptor = "chain 5 N4E"
numericvalue = 0.246

[[record]]
variantdescriptor = "chain 5 F5T"
numericvalue = 1.08

[[record]]
variantdescriptor = "chain 5 K7A"
numericvalue = 0.227

[[record]]
variantdescriptor = "chain 5 I3A"
numericvalue = 1.03

[[record]]
variantdescriptor = "chain 5 L8C"
numericvalue = 0.824

